Where these numbers come from: patent US9708251B2

experiment.description: Emulsion stability testing of nonionic emulsifiers, Hallcomid solvent series
Type: physicochemical
test.parameters: Tebuconazole 360 g/L in Hallcomid M-8-10, 34 ppm water
Record fulfilled whenever 1 h separation, amount is at 3 mL or higher; record not fulfilled when lower.

[
  {
    "compound": "C=CCCCCCCCCOCCOCCOCCOCCOCCO",
    "assigned.label": "not fulfilled"
  },
  {
    "compound": "CCC=CCCCCCCCCOCCO (mixture of isomers)",
    "assigned.label": "fulfilled"
  },
  {
    "compound": "CCC=CCCCCCCCCOCCOCCOCCOCCOCCOCCOCCO (mixture of isomers)",
    "assigned.label": "not fulfilled"
  },
  {
    "compound": "CCC=CCCCCCCCCOCCOCCOCCOCCOCCO (mixture of isomers)",
    "assigned.label": "not fulfilled"
  }
]

---

experiment.description: Emulsion stability testing of nonionic emulsifiers, aromatic solvent series
Type: physicochemical
Design: key: C = creamy; CO = creamy oil; O = oil; GC = gritty cream; NS = no separation; OC = oily cream
test.parameters: Tebuconazole 360 g/L in N-methyl-2-pyrrolidone, 1000 ppm water

[
  {
    "compound": "CCC=CCCCCCCCCOCCO (mixture of isomers)",
    "24 h separation, appearance": "GC"
  },
  {
    "compound": "C=CCCCCCCCCOCCOCCOCCOCCOCCOCCOCCOCCOCCOCCOCCOCCOCCOCCOCCO",
    "24 h separation, appearance": "CO"
  },
  {
    "compound": "C=CCCCCCCCCOCCOCCOCCO",
    "24 h separation, appearance": "GC"
  },
  {
    "compound": "CCC=CCCCCCCCCOCCOCCOCCOCCOCCOCCOCCO (mixture of isomers)",
    "24 h separation, appearance": "GC"
  },
  {
    "compound": "C=CCCCCCCCCOCCOCCOCCOCCOCCOCCOCCO",
    "24 h separation, appearance": "CO"
  },
  {
    "compound": "C=CCCCCCCCCOCCO",
    "24 h separation, appearance": "GC"
  }
]

---

experiment.description: Surfactant phase behavior study (cross-polarized microscopy)
Format: physicochemical
test.parameters: room temperature, in deionized water
Description: Phase behavior is observed using an Olympus BH-2 cross-polarized microscope at 100-400× and room temperature (20° C. to 22° C.). The inventive monounsaturated alcohol ethoxylates are compared with their saturated analogs. Samples are prepared by diluting the most concentrated product gradually with deionized water. […] Samples are loaded between a microscope slide and cover glass and are allowed to equilibrate before observation. Microscopic texture is analyzed and used to determine the phase. […]

[
  {
    "compound": "CCCCCCCCCCOCCOCCOCCOCCOCCOCCOCCO",
    "Lamellar phase region": "43-60 % Actives Level"
  },
  {
    "compound": "CCCCCCCCCCCCOCCOCCOCCO",
    "Lamellar phase region": "28-90 % Actives Level"
  },
  {
    "compound": "CCC=CCCCCCCCCOCCOCCOCCO (mixture of isomers)",
    "Lamellar phase region": "40-74 % Actives Level"
  },
  {
    "compound": "CCCCCCCCCCCCOCCOCCOCCOCCOCCOCCOCCO",
    "Lamellar phase region": "67-90 % Actives Level"
  },
  {
    "compound": "CCC=CCCCCCCCCOCCOCCOCCOCCOCCO (mixture of isomers)",
    "Lamellar phase region": "50-80 % Actives Level"
  }
]

---

experiment.description: Surfactant phase behavior study (cross-polarized microscopy)
Assay type: physicochemical
test.parameters: room temperature, in deionized water
Hexagonal phase region listing for selected compounds.

[
  {
    "compound": "CCCCCCCCCCCCOCCOCCOCCOCCOCCOCCOCCO",
    "Hexagonal phase region": "30-67 % Actives Level"
  },
  {
    "compound": "CCCCCCCCCCCCOCCOCCOCCOCCOCCOCCOCCOCCOCCOCCOCCOCCOCCOCCOCCO",
    "Hexagonal phase region": "50-73 % Actives Level"
  },
  {
    "compound": "CCC=CCCCCCCCCOCCOCCOCCOCCOCCOCCOCCOCCOCCOCCOCCOCCOCCOCCOCCO (mixture of isomers)",
    "Hexagonal phase region": "60-70 % Actives Level"
  },
  {
    "compound": "CCC=CCCCCCCCCOCCOCCOCCOCCOCCOCCOCCO (mixture of isomers)",
    "Hexagonal phase region": "35-57 % Actives Level"
  }
]

---

experiment.description: Emulsion stability testing of nonionic emulsifiers, aromatic solvent series
Format: physicochemical
Set-up: key: C = creamy; CO = creamy oil; O = oil; GC = gritty cream; NS = no separation; OC = oily cream
test.parameters: Bifenthrin 240 g/L in Aromatic 100, 1000 ppm water
Procedure: Nonionic samples contain a low amount of water (<1%) and are prepared as emulsifiable concentrates with three pesticides using two different solvent systems. In the aromatic solvent series, the nonionic sample replaces Toximul® 8240 (castor oil ethoxylate, 36 POE, Stepan), and in the Hallcomid™ (N,N-dimethylcaprylamide/N,N-dimethylcapramide, Stepan) solvent series, the nonionic sample replaces Ninex® MT-630F. […]

[
  {
    "compound": "C=CCCCCCCCCOCCOCCOCCO",
    "1 h separation, appearance": "O"
  },
  {
    "compound": "CCC=CCCCCCCCCOCCOCCOCCOCCOCCOCCOCCO (mixture of isomers)",
    "1 h separation, appearance": "C"
  },
  {
    "compound": "C=CCCCCCCCCOCCO",
    "1 h separation, appearance": "O"
  },
  {
    "compound": "CCC=CCCCCCCCCOCCOCCOCCO (mixture of isomers)",
    "1 h separation, appearance": "O"
  },
  {
    "compound": "C=CCCCCCCCCOCCOCCOCCOCCOCCOCCOCCOCCOCCOCCOCCOCCOCCOCCOCCO",
    "1 h separation, appearance": "C"
  },
  {
    "compound": "CCC=CCCCCCCCCOCCO (mixture of isomers)",
    "1 h separation, appearance": "O"
  },
  {
    "compound": "CCC=CCCCCCCCCOCCOCCOCCOCCOCCOCCOCCOCCOCCOCCOCCOCCOCCOCCOCCO (mixture of isomers)",
    "1 h separation, appearance": "C"
  }
]

---

experiment.description: Emulsion stability testing of nonionic emulsifiers, aromatic solvent series
Type: physicochemical
test.parameters: 2,4-D ester 480 g/L in Exxsol D-110, 1000 ppm water
endpoint.label: 1 h separation, amount

[
  {
    "compound": "CCC=CCCCCCCCCOCCOCCOCCO (mixture of isomers) [A12-7]",
    "measured.result": "4.2 mL"
  },
  {
    "compound": "C=CCCCCCCCCOCCO [A10-4]",
    "measured.result": "3.8 mL"
  },
  {
    "compound": "CCC=CCCCCCCCCOCCOCCOCCOCCOCCO (mixture of isomers) [A12-10]",
    "measured.result": "4.6 mL"
  },
  {
    "compound": "C=CCCCCCCCCOCCOCCOCCOCCOCCOCCOCCO [A10-13]",
    "measured.result": "3.9 mL"
  },
  {
    "compound": "CCC=CCCCCCCCCOCCOCCOCCOCCOCCOCCOCCO (mixture of isomers) [A12-13]",
    "measured.result": "5.2 mL"
  }
]

---

experiment.description: Emulsion stability testing of nonionic emulsifiers, aromatic solvent series
Format: physicochemical
Parameters: key: C = creamy; CO = creamy oil; O = oil; GC = gritty cream; NS = no separation; OC = oily cream
test.parameters: Tebuconazole 360 g/L in N-methyl-2-pyrrolidone, 1000 ppm water
endpoint.label: 1 h separation, appearance

[
  {
    "compound": "C=CCCCCCCCCOCCOCCOCCOCCOCCO [A10-10]",
    "endpoint.label": "1 h separation, appearance",
    "measured.result": "CO"
  },
  {
    "compound": "C=CCCCCCCCCOCCOCCOCCOCCOCCOCCOCCOCCOCCOCCOCCOCCOCCOCCOCCO [A10-16]",
    "endpoint.label": "1 h separation, appearance",
    "measured.result": "C"
  },
  {
    "compound": "CCC=CCCCCCCCCOCCOCCOCCOCCOCCOCCOCCOCCOCCOCCOCCOCCOCCOCCOCCO (mixture of isomers) [A12-16]",
    "endpoint.label": "1 h separation, appearance",
    "measured.result": "CO"
  },
  {
    "compound": "C=CCCCCCCCCOCCO [A10-4]",
    "endpoint.label": "1 h separation, appearance",
    "measured.result": "GC"
  },
  {
    "compound": "C=CCCCCCCCCOCCOCCOCCOCCOCCOCCOCCO [A10-13]",
    "endpoint.label": "1 h separation, appearance",
    "measured.result": "CO"
  },
  {
    "compound": "CCC=CCCCCCCCCOCCOCCOCCO (mixture of isomers) [A12-7]",
    "endpoint.label": "1 h separation, appearance",
    "measured.result": "C"
  },
  {
    "compound": "CCC=CCCCCCCCCOCCO (mixture of isomers) [A12-4]",
    "endpoint.label": "1 h separation, appearance",
    "measured.result": "C"
  },
  {
    "compound": "C=CCCCCCCCCOCCOCCOCCO [A10-7]",
    "endpoint.label": "1 h separation, appearance",
    "measured.result": "GC"
  },
  {
    "compound": "CCC=CCCCCCCCCOCCOCCOCCOCCOCCO (mixture of isomers) [A12-10]",
    "endpoint.label": "1 h separation, appearance",
    "measured.result": "C"
  },
  {
    "compound": "CCC=CCCCCCCCCOCCOCCOCCOCCOCCOCCOCCO (mixture of isomers) [A12-13]",
    "endpoint.label": "1 h separation, appearance",
    "measured.result": "C"
  }
]
